Provenance of the data: ChEMBL document CHEMBL3864147

# assay-details: Antioxidant activity assessed as ferric ion reducing activity by measuring Fe2+ levels using fe3+-TPTZ at 375 ug/ml after 30 mins by FRAP assay
# Type: functional
Where Activity equals or exceeds 30 µmol/L, the correct label is 1; where it does not, the label is 0.

Solved entries:
{"molecule": "Cc1c(C)c2c(c(C)c1O)CCC(C)(C(=O)O)O2 (stereo not drawn)", "class-assignment": 1}
{"molecule": "CCO[C@H](c1ccc(O[C@@H](CO)[C@@H](O)c2ccc(O)c(OC)c2)c(OC)c1)[C@H](CO)c1ccc(O)c(OC)c1", "class-assignment": 1}
{"molecule": "CCO[C@H](c1ccc(O[C@@H](CO)[C@@H](O)c2ccc(O)c(OC)c2)c(OC)c1)[C@@H](CO)c1ccc(O)c(OC)c1", "class-assignment": 1}
{"molecule": "COc1cc([C@@H](O)[C@@H](CO)Oc2ccc([C@@H](O)[C@H](O)CO)cc2OC)ccc1O", "class-assignment": 0}
{"molecule": "CCO[C@H](c1ccc(O[C@@H](CO)[C@@H](OC)c2ccc(O)c(OC)c2)c(OC)c1)[C@H](CO)c1ccc(O)c(OC)c1", "class-assignment": 1}
{"molecule": "COc1cc([C@@H](O)[C@@H](CO)Oc2c(OC)cc([C@@H](O)[C@H](O)CO)cc2OC)ccc1O", "class-assignment": 1}
{"molecule": "COc1cc([C@@H](O)[C@H](CO)Oc2ccc([C@@H](OC)[C@H](CO)c3ccc(O)c(OC)c3)cc2OC)ccc1O", "class-assignment": 1}
{"molecule": "COc1cc([C@H](O)[C@@H](CO)Oc2ccc([C@@H](O)[C@H](O)CO)cc2OC)ccc1O", "class-assignment": 0}
{"molecule": "COc1cc([C@@H](O)[C@@H](CO)Oc2ccc([C@@H](OC)[C@H](O)CO)cc2OC)ccc1O", "class-assignment": 1}
{"molecule": "COc1cc([C@@H](CO)[C@H](OC)c2ccc(O[C@H](CO)[C@@H](O)c3ccc(O)c(OC)c3)c(OC)c2)ccc1O", "class-assignment": 1}

(Q) Given "COc1cc([C@@H](O)[C@H](CO)Oc2c(OC)cc([C@@H](O)[C@H](O)CO)cc2OC)ccc1O" , state whether its Activity is at least 30 µmol/L.
(A) 1

====

# assay-details: Antiinflammatory activity in mouse RAW264.7 cells assessed as inhibition of LPS-induced TNFalpha production at 100 uM after 24 hrs by ELISA relative to control
# Format: functional
# study-conditions: RAW264.7, 24 h
assay-endpoint: inhibition at 100 µM (%)
Your answer should be a plain number; it is taken to be in %.

{"compound": "COc1cc([C@@H](O)[C@H](CO)Oc2ccc([C@@H](OC)[C@H](CO)c3ccc(O)c(OC)c3)cc2OC)ccc1O", "quantity-unit": "%", "inhibition at 100 µM": 18.4}
{"compound": "COc1cc([C@@H](O)[C@@H](CO)Oc2c(OC)cc([C@@H](O)[C@H](O)CO)cc2OC)ccc1O", "quantity-unit": "%", "inhibition at 100 µM": 45.8}
{"compound": "COc1cc([C@@H](CO)[C@H](OC)c2ccc(O[C@H](CO)[C@@H](O)c3ccc(O)c(OC)c3)c(OC)c2)ccc1O", "quantity-unit": "%", "inhibition at 100 µM": 17.1}
{"compound": "COc1cc([C@H](O)[C@@H](CO)Oc2ccc([C@@H](O)[C@@H](CO)c3ccc(O)c(OC)c3)cc2OC)ccc1O", "quantity-unit": "%", "inhibition at 100 µM": 32.1}
{"compound": "COc1cc([C@@H](O)[C@@H](CO)Oc2ccc([C@@H](O)[C@H](O)CO)cc2OC)ccc1O", "quantity-unit": "%", "inhibition at 100 µM": 52.5}
{"compound": "COc1cc(C2Oc3cc([C@H]4Oc5cc(O)cc(O)c5C(=O)[C@@H]4O)ccc3OC2CO)ccc1O (some centres undefined) [SILIBININ]", "quantity-unit": "%", "inhibition at 100 µM": 53.8}
{"compound": "COc1cc([C@H](OC)[C@@H](CO)Oc2ccc([C@@H](O)[C@H](O)CO)cc2OC)ccc1O", "quantity-unit": "%", "inhibition at 100 µM": 57.7}
{"compound": "COc1cc([C@@H](O)[C@H](CO)Oc2c(OC)cc([C@@H](O)[C@H](O)CO)cc2OC)ccc1O", "quantity-unit": "%", "inhibition at 100 µM": 47}

// switching to the query compound
(Q) Entry under review: "COc1cc([C@@H](O)[C@@H](CO)Oc2ccc([C@@H](OC)[C@H](O)CO)cc2OC)ccc1O" . Reported inhibition at 100 µM?
(A) 69.3

====

# assay-details: Antiinflammatory activity in mouse RAW264.7 cells assessed as inhibition of LPS-induced nitric oxide production after 24 hrs by Griess assay
# Format: functional, cell-based
# study-conditions: RAW264.7, 24 h
pIC50: −log10 of the molar value.
assay-endpoint: pIC50

{"substance-smiles": "COc1cc([C@H](OC)[C@@H](CO)Oc2ccc([C@@H](O)[C@H](O)CO)cc2OC)ccc1O", "pIC50": "< 4.00"}
{"substance-smiles": "COc1cc([C@@H](O)[C@@H](CO)Oc2c(OC)cc([C@@H](O)[C@H](O)CO)cc2OC)ccc1O", "pIC50": "< 4.00"}
{"substance-smiles": "COc1cc([C@@H](O)[C@@H](CO)Oc2ccc([C@@H](O)[C@H](O)CO)cc2OC)ccc1O", "pIC50": "< 4.00"}
{"substance-smiles": "COc1cc([C@@H](O)[C@H](CO)Oc2c(OC)cc([C@@H](O)[C@H](O)CO)cc2OC)ccc1O", "pIC50": "< 4.00"}
{"substance-smiles": "COc1cc([C@@H](O)[C@@H](CO)Oc2ccc([C@@H](OC)[C@H](O)CO)cc2OC)ccc1O", "pIC50": "< 4.00"}

// switching to the query molecule
(Q) Entry under review: "COc1cc([C@H](O)[C@@H](CO)Oc2ccc([C@@H](O)[C@H](O)CO)cc2OC)ccc1O" . Reported pIC50?
(A) < 4.00
